Assay: chemical genetic growth profiling, strain panel (AID 1159580);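 further: tested at 20 µM; growth read once vehicle control cultures reached saturation at 30 °C; 1 = growth at the plate median or of vehicle wells; lower values mean less growth of the strain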
Conditions: S. cerevisiae deletion strains, growth OD, locus YDR001C, strain nth1, hits give low values
About 2,000 (36%) of roughly 5,500 compounds were called active. Inconclusive results (about 18%) are left out. The list shows a part of the results.
Measured Parameter: normalized growth

// normalized growth value for C[C@@H]1CC[C@@]2(OC1)OC1CC3C4CC=C5C[C@@H](O)CC[C@]5(C)C4CC[C@]3(C)C1[C@@H]2C (stereo partly drawn) : 1 (inactive)

More entries:
// normalized growth value for CCCC(C)(COC(N)=O)COC(=O)NC(C)C (stereo not drawn) : 0.974 (inactive)

// normalized growth value for O=C(OC1Cc2c(O)cc(O)cc2OC1c1cc(=O)c(O)c2c(O)c(O)cc(C3Oc4cc(O)cc(O)c4CC3O)c2c1)c1cc(O)c(O)c(O)c1 (stereo not drawn) : 0.992 (inactive)
